target: KCNT1 (KNa1.1, Slack) (Homo sapiens, UniProt Q5JUK3); assay: KCNT1 patch clamp assay (SyncroPatch 384PE, HEK-TREX cell line); details: tetracycline inducible HEK-TREX cell line, perforated patch, step to 0 mV, room temperature; read-out: KCNT1-WT IC50
Sequence (Q5JUK3 whole entry): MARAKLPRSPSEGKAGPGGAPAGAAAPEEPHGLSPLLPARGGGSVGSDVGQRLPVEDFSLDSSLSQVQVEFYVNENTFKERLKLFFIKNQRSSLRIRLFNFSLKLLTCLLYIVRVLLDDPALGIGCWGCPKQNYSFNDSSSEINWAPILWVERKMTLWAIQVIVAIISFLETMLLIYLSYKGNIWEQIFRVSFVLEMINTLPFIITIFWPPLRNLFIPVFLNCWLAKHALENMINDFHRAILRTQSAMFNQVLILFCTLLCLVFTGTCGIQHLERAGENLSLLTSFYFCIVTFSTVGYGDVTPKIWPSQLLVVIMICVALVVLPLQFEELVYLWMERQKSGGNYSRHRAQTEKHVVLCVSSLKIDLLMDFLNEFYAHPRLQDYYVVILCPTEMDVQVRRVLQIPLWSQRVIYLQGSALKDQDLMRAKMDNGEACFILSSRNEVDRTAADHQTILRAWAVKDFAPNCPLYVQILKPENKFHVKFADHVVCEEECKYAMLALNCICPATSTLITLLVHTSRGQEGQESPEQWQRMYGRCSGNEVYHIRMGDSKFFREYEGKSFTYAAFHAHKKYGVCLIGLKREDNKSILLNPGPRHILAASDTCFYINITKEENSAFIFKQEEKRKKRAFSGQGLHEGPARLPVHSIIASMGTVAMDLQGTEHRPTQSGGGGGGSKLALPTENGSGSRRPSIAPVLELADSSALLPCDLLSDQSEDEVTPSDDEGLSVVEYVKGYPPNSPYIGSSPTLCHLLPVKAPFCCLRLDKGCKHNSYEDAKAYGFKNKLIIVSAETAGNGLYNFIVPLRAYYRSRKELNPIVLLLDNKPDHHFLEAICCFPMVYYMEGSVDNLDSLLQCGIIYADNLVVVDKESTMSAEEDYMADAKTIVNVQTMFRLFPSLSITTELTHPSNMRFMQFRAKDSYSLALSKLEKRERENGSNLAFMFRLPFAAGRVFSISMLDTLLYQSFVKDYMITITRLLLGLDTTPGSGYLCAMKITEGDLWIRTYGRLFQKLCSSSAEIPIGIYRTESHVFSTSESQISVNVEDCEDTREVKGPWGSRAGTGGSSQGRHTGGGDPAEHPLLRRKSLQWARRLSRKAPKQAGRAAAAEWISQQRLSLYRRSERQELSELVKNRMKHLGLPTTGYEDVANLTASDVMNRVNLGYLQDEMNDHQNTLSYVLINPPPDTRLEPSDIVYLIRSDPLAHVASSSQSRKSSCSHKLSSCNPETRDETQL
pIC50: −log10 of the molar value.
Reported endpoint: pIC50

Tell me measured pIC50 for C[C@H](NC(=O)c1cc(C(F)(F)F)nn1C)c1noc(-c2ccnc(C3CC3)c2)n1 [Compound 2a] please. ≥ 6.00
